system: recombinant activated JNK; experiment: in vitro kinase assay JNK (ADP-Glo); assay type: biochemical; details: 1 μM compound; 100 μM ATP
reported-endpoint: % of inhibition at 1 μM, JNK (%)

>  <entry-smiles>
CCCOc1ccc(Nc2nc3nonc3nc2N2CCC(Sc3ccc(C)cc3)CC2)cc1

>  <recorded-number>
37

$$$$
>  <entry-smiles>
CCCOc1cccc(Nc2nc3nonc3nc2N2CCC(Oc3ccc(Cl)cc3)CC2)c1

>  <recorded-number>
31

$$$$
>  <entry-smiles>
CCOc1ccc(Nc2nc3nonc3nc2N2CCN(Cc3ccc(Cl)cc3)CC2)cc1

>  <recorded-number>
30

$$$$
>  <entry-smiles>
CCOc1ccc(Nc2nc3nonc3nc2N2CCC(Sc3ccc(C)cc3)CC2)cc1

>  <recorded-number>
35

$$$$
>  <entry-smiles>
CCCOc1ccc(Nc2nc3nonc3nc2N2CCC(Oc3ccc(Cl)cc3)CC2)cc1

>  <recorded-number>
49

$$$$
>  <entry-smiles>
CCCOc1cccc(Nc2nc3nonc3nc2N2CCC(Sc3ccc(C)cc3)CC2)c1

>  <recorded-number>
34

$$$$
>  <entry-smiles>
Clc1ccc(OC2CCN(c3nc4nonc4nc3Nc3ccc4occc4c3)CC2)cc1

>  <recorded-number>
24

$$$$
>  <entry-smiles>
Clc1ccc(OC2CCN(c3nc4nonc4nc3Nc3ccc4c(c3)CCO4)CC2)cc1

>  <recorded-number>
24

$$$$
>  <entry-smiles>
CCCOc1ccc(Nc2nc3nonc3nc2N2CCN(Cc3ccc(Cl)cc3)CC2)cc1

>  <recorded-number>
26

$$$$
>  <entry-smiles>
CCOc1cccc(Nc2nc3nonc3nc2N2CCC(Sc3ccc(C)cc3)CC2)c1

>  <recorded-number>
32

$$$$
>  <entry-smiles>
CCOc1cccc(Nc2nc3nonc3nc2N2CCC(Oc3ccc(Cl)cc3)CC2)c1

>  <recorded-number>
31

$$$$
>  <entry-smiles>
CCOc1ccc(Nc2nc3nonc3nc2N2CCC(Oc3ccc(Cl)cc3)CC2)cc1

>  <recorded-number>
36

$$$$

* * *

assay: Single dose i.p. and i.v. blood brain barrier permeability study, plasma and brain concentration (LC-MS/MS); type: in vivo, male Sprague Dawley rat; details: male, Sprague Dawley, rat, plasma, intravenous, 10 mg/kg, 10 mg/kg i.v., rats R1, R2, R3, read-out: Concentration in rat plasma i.v. at 2 h, individual rats
reported-endpoint: concentration at 2 h (ng/mL)

>  <entry-smiles>
CCCOc1ccc(Nc2nc3nonc3nc2N2CCC(Oc3ccc(Cl)cc3)CC2)cc1

>  <recorded-number>
163

$$$$

* * *

test: Single dose i.p. and i.v. blood brain barrier permeability study, plasma and brain concentration (LC-MS/MS); format: in vivo, male Sprague Dawley rat; conditions: male, Sprague Dawley, rat, plasma, intravenous, 10 mg/kg, 10 mg/kg i.v., mean of 3 rats, read-out: Concentration in rat plasma i.v. at 2 h, Mean
reported-endpoint: concentration at 2 h (ng/mL)

>  <entry-smiles>
CCCOc1ccc(Nc2nc3nonc3nc2N2CCC(Oc3ccc(Cl)cc3)CC2)cc1

>  <recorded-number>
204

$$$$

* * *

Tested on: recombinant activated JNK
Assay: in vitro kinase assay JNK (ADP-Glo)
Format: biochemical
Conditions: 10 μM compound; 100 μM ATP
Protocol: Purified recombinant activated JNK (10 nM) (ProQinase) was preincubated 10 minutes at 30° C. with the compound of interest at concentrations between 1 and 100 μM in duplicate in a final volume of 30 μl of kinase buffer (Hepes 60 mM pH 7.5, MgCl2 3 mM, MnCl2 3 mM, sodium orthovanadate 3 μM, DTT 1.2 mM). […] Phosphorylation was analyzed with ADP-Glo™ (Promega #V9101) and emitted luminescence was measured with BMG Fluostar microplate reader.
reported-endpoint: % of inhibition at 10 μM, JNK (%)

>  <entry-smiles>
CCOc1ccc(Nc2nc3nonc3nc2N2CCN(Cc3ccc(Cl)cc3)CC2)cc1

>  <recorded-number>
50

$$$$
>  <entry-smiles>
CCCOc1cccc(Nc2nc3nonc3nc2N2CCC(Sc3ccc(C)cc3)CC2)c1

>  <recorded-number>
101

$$$$
>  <entry-smiles>
CCCOc1ccc(Nc2nc3nonc3nc2N2CCN(Cc3ccc(Cl)cc3)CC2)cc1

>  <recorded-number>
51

$$$$
>  <entry-smiles>
Clc1ccc(OC2CCN(c3nc4nonc4nc3Nc3ccc4c(c3)CCO4)CC2)cc1

>  <recorded-number>
74

$$$$
>  <entry-smiles>
Clc1ccc(OC2CCN(c3nc4nonc4nc3Nc3ccc4occc4c3)CC2)cc1

>  <recorded-number>
90

$$$$
>  <entry-smiles>
CCCOc1cccc(Nc2nc3nonc3nc2N2CCC(Oc3ccc(Cl)cc3)CC2)c1

>  <recorded-number>
96

$$$$
>  <entry-smiles>
CCOc1ccc(Nc2nc3nonc3nc2N2CCC(Oc3ccc(Cl)cc3)CC2)cc1

>  <recorded-number>
91

$$$$
>  <entry-smiles>
CCOc1ccc(Nc2nc3nonc3nc2N2CCC(Sc3ccc(C)cc3)CC2)cc1

>  <recorded-number>
91

$$$$
>  <entry-smiles>
CCOc1cccc(Nc2nc3nonc3nc2N2CCC(Oc3ccc(Cl)cc3)CC2)c1

>  <recorded-number>
74

$$$$
>  <entry-smiles>
CCCOc1ccc(Nc2nc3nonc3nc2N2CCC(Oc3ccc(Cl)cc3)CC2)cc1

>  <recorded-number>
98

$$$$
>  <entry-smiles>
CCOc1cccc(Nc2nc3nonc3nc2N2CCC(Sc3ccc(C)cc3)CC2)c1

>  <recorded-number>
55

$$$$
>  <entry-smiles>
CCCOc1ccc(Nc2nc3nonc3nc2N2CCC(Sc3ccc(C)cc3)CC2)cc1

>  <recorded-number>
97

$$$$

* * *

assay: Single dose i.p. and i.v. blood brain barrier permeability study, plasma and brain concentration (LC-MS/MS); type: in vivo, male Sprague Dawley rat; conditions: male, Sprague Dawley, rat, brain homogenate, intraperitoneal, 10 mg/kg, 10 mg/kg i.p., mean of 3 rats, read-out: Concentration in rat brain homogenate i.p. at 2 h, Mean

>  <entry-smiles>
CCCOc1ccc(Nc2nc3nonc3nc2N2CCC(Oc3ccc(Cl)cc3)CC2)cc1

>  <output-unit>
ng/g

>  <concentration at 2 h>
41.6

$$$$

* * *

biological target: recombinant activated p38alpha (Homo sapiens, UniProt Q16539); construct: purchased ProQinase; experiment: in vitro kinase assay p38 (ADP-Glo); format: biochemical; conditions: 1 μM compound; 100 μM ATP
Sequence (Q16539 whole entry): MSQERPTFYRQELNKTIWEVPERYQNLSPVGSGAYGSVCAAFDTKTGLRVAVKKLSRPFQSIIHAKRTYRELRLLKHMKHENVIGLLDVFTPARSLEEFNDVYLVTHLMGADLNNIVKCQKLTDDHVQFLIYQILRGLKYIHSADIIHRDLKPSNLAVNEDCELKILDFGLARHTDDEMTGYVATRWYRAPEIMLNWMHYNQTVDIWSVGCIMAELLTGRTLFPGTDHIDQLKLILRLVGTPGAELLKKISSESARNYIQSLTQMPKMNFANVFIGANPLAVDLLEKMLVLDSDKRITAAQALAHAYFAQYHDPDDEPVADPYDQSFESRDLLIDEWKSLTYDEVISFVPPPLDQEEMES
Reported values of inhibition at 1 µM for individual entries

>  <entry-smiles>
CCOc1ccc(Nc2nc3nonc3nc2N2CCC(Oc3ccc(Cl)cc3)CC2)cc1

>  <output-unit>
%

>  <inhibition at 1 µM>
41

$$$$
>  <entry-smiles>
CCCOc1cccc(Nc2nc3nonc3nc2N2CCC(Oc3ccc(Cl)cc3)CC2)c1

>  <output-unit>
%

>  <inhibition at 1 µM>
23

$$$$
>  <entry-smiles>
CCCOc1cccc(Nc2nc3nonc3nc2N2CCC(Sc3ccc(C)cc3)CC2)c1

>  <output-unit>
%

>  <inhibition at 1 µM>
19

$$$$
>  <entry-smiles>
CCOc1cccc(Nc2nc3nonc3nc2N2CCC(Sc3ccc(C)cc3)CC2)c1

>  <output-unit>
%

>  <inhibition at 1 µM>
16

$$$$
>  <entry-smiles>
CCOc1cccc(Nc2nc3nonc3nc2N2CCC(Oc3ccc(Cl)cc3)CC2)c1

>  <output-unit>
%

>  <inhibition at 1 µM>
25

$$$$
>  <entry-smiles>
CCCOc1ccc(Nc2nc3nonc3nc2N2CCC(Oc3ccc(Cl)cc3)CC2)cc1

>  <output-unit>
%

>  <inhibition at 1 µM>
37

$$$$
>  <entry-smiles>
CCOc1ccc(Nc2nc3nonc3nc2N2CCC(Sc3ccc(C)cc3)CC2)cc1

>  <output-unit>
%

>  <inhibition at 1 µM>
32

$$$$
>  <entry-smiles>
Clc1ccc(OC2CCN(c3nc4nonc4nc3Nc3ccc4c(c3)CCO4)CC2)cc1

>  <output-unit>
%

>  <inhibition at 1 µM>
21

$$$$
>  <entry-smiles>
Clc1ccc(OC2CCN(c3nc4nonc4nc3Nc3ccc4occc4c3)CC2)cc1

>  <output-unit>
%

>  <inhibition at 1 µM>
15

$$$$
>  <entry-smiles>
CCCOc1ccc(Nc2nc3nonc3nc2N2CCN(Cc3ccc(Cl)cc3)CC2)cc1

>  <output-unit>
%

>  <inhibition at 1 µM>
23

$$$$
>  <entry-smiles>
CCOc1ccc(Nc2nc3nonc3nc2N2CCN(Cc3ccc(Cl)cc3)CC2)cc1

>  <output-unit>
%

>  <inhibition at 1 µM>
25

$$$$
>  <entry-smiles>
CCCOc1ccc(Nc2nc3nonc3nc2N2CCC(Sc3ccc(C)cc3)CC2)cc1

>  <output-unit>
%

>  <inhibition at 1 µM>
41

$$$$

* * *

molecular target: recombinant activated p38alpha (Homo sapiens); construct: purchased ProQinase; assay: in vitro kinase assay p38 (ADP-Glo); assay type: biochemical; conditions: 10 μM compound; 100 μM ATP
Reported values of inhibition at 10 µM for individual entries

>  <entry-smiles>
CCOc1ccc(Nc2nc3nonc3nc2N2CCC(Oc3ccc(Cl)cc3)CC2)cc1

>  <measurement-target>
recombinant activated p38alpha (Homo sapiens)

>  <output-unit>
%

>  <inhibition at 10 µM>
87

$$$$
>  <entry-smiles>
CCCOc1cccc(Nc2nc3nonc3nc2N2CCC(Oc3ccc(Cl)cc3)CC2)c1

>  <measurement-target>
recombinant activated p38alpha (Homo sapiens)

>  <output-unit>
%

>  <inhibition at 10 µM>
100

$$$$
>  <entry-smiles>
CCOc1cccc(Nc2nc3nonc3nc2N2CCC(Sc3ccc(C)cc3)CC2)c1

>  <measurement-target>
recombinant activated p38alpha (Homo sapiens)

>  <output-unit>
%

>  <inhibition at 10 µM>
64

$$$$
>  <entry-smiles>
Clc1ccc(OC2CCN(c3nc4nonc4nc3Nc3ccc4c(c3)CCO4)CC2)cc1

>  <measurement-target>
recombinant activated p38alpha (Homo sapiens)

>  <output-unit>
%

>  <inhibition at 10 µM>
105

$$$$
>  <entry-smiles>
CCOc1ccc(Nc2nc3nonc3nc2N2CCC(Sc3ccc(C)cc3)CC2)cc1

>  <measurement-target>
recombinant activated p38alpha (Homo sapiens)

>  <output-unit>
%

>  <inhibition at 10 µM>
95

$$$$
>  <entry-smiles>
CCCOc1ccc(Nc2nc3nonc3nc2N2CCC(Sc3ccc(C)cc3)CC2)cc1

>  <measurement-target>
recombinant activated p38alpha (Homo sapiens)

>  <output-unit>
%

>  <inhibition at 10 µM>
100

$$$$
>  <entry-smiles>
Clc1ccc(OC2CCN(c3nc4nonc4nc3Nc3ccc4occc4c3)CC2)cc1

>  <measurement-target>
recombinant activated p38alpha (Homo sapiens)

>  <output-unit>
%

>  <inhibition at 10 µM>
95

$$$$
